- Test system: OVCAR-5 ovarian
- protocol: NCI-60 one-dose screen, 48 h (100 = growth as untreated, 0 = no growth, -100 = all killed)
- conditionParameters: 10 µM unless noted
About 83,000 compounds went through this panel and 20% of them were active in at least one assay; those are over-represented in the sample as a whole.
metric: growth (%)
Provide only the numeric value, understood in %.

The examples below pair each entry with its known result.
Cn1cc(-c2ncnc3ccc(-c4cnc(Cl)c(NS(C)(=O)=O)c4)cc23)c2ccccc21: 12.8
Ic1ccccc1-c1ccccc1: 114
CCN(CCN(C)C)C(=O)CNCc1cc(C(N)=O)ccn1: 101
CN1CCN(CC(=O)Nc2ccc(-c3nc4ccccc4s3)cc2)CC1: 72.9
C=CC[n+]1c(/C=C/C=C2\N(C)c3ccccc3C2(C)C)sc2ccc(OC)cc21: 22.4
O=C(Nc1ccc(C2=NCCCN2)cc1)c1ccc(C(=O)Nc2ccc(C3=NCCCN3)cc2)nc1: 95.1

What reported growth corresponds to COC(=O)CC[C@@H](C)[C@H]1CC[C@H]2C3CC[C@@H]4C[C@@H]5CC[C@]4(C)[C@@]3(O5)[C@H](Br)[C@@H](Br)[C@]12C (some centres undefined) on OVCAR-5 ovarian?
102

What reported growth corresponds to COc1cc(-c2nc(C(=O)NCC(=O)O)nn2-c2ccc(Cl)cc2)cc(OC)c1OC on OVCAR-5 ovarian?
105

What reported growth corresponds to COc1ccc(C2CC(=O)c3c(O)c(OC)c(OC)c(OC)c3O2)c(O)c1 (centres undefined) on OVCAR-5 ovarian?
54.2

###

- Tested on: EKVX NSCLC
- protocol: NCI-60 one-dose screen, 48 h
- conditionParameters: 10 µM unless noted
Compounds without any hit were thinned out: in the full panel of roughly 83,000, 20% have a hit. The source made the active and inactive calls. How the source made its calls: active means growth percent below 10; inactive means the rest.
Give one outcome, nothing more. List: True for active, False for inactive

Here's what some known entries look like.
CN1CCC(COc2cnc(-c3cccc(Cn4nc(-c5cccc(C#N)c5)ccc4=O)c3)nc2)CC1: False
Cn1c(Nc2ccc(C(F)(F)F)cc2)nc2cc(Oc3ccnc(-c4ncc(C(F)(F)F)[nH]4)c3)ccc21: False

Consider the record given below.
Fill in: this test's call for CCNC(=O)Nc1nc2ccc(Oc3ccnc(C(=O)NC)c3)cc2s1 is ___
False

###

- Tested on: UACC-62 melanoma
- protocol: NCI-60 one-dose screen, 48 h (100 = growth as untreated, 0 = no growth, -100 = all killed)
- conditionParameters: 10 µM unless noted
About 83,000 compounds went through this panel and 20% of them were active in at least one assay; those are over-represented in the sample as a whole.
Entries annotated with measured growth
Provide only the numeric value, understood in %.

The examples below pair each entry with its known result.
Cc1sc2c(c1C)c(=O)nc1c(-c3nc4ccccc4s3)n[nH]n12: 88.4
Cc1cc(O)c2c(c1)C1OC(=O)CCCCCN1C1=C2C(=O)c2cccc(OC3CC(O)C(O)C(C)O3)c2C1=O (stereo not drawn): 89.5
CCN(CC)CCN1C(=O)c2cccc3c(-c4ccc5c(c4)ncn5C4CCCCC4)ccc(c23)C1=O: 22
O=C(NOCCO)c1ccc2cncn2c1Nc1ccc(I)cc1F: 3.07
CN1CCN(Cc2ccc(NC(=O)c3[nH]ncc3Nc3ncnc4sc5c(c34)CCCC5)cc2)CC1: 4.67

What reported growth corresponds to Cc1cc(C2(c3ccc(O)c(C)c3)OS(=O)(=O)c3ccccc32)ccc1O on UACC-62 melanoma?
107

What reported growth corresponds to Cc1nn(-c2nc3ccccc3[nH]2)c2c1C(c1ccc(O)cc1)CC(=O)N2 (stereo not drawn) on UACC-62 melanoma?
84.9
